Each entry below lists one item and its recorded Max. Fold Increase value.
- Tested on: Salmonella typhimurium TA1535/pSK1002
- Measurement Protocol: Salmonella typhimurium SOS/umu genotoxicity assay
- Experimental Setup: −S9
Provide the reading as a plain figure in fold.

Completed entries (count: 3):
- Compound: "O=S(=O)(C1CC1)N1CCC2(CC1)OOC1(OO2)C2CC3CC(C2)CC1C3 [Tetraoxane 39d]"
  Max. Fold Increase [fold]: 1.05
- Compound: "O=C(CC1CCC2(CC1)OOC1(OO2)C2CC3CC(C2)CC1C3)N1CCOCC1 (centres unmarked) [Tetraoxane 29h]"
  Max. Fold Increase [fold]: 1.04
- Compound: "Nc1ccc2cc3ccccc3cc2c1 [Tetraoxane 2Aan, 2-Aminoanthracene, reference compound]"
  Max. Fold Increase [fold]: 1.10

Please look up its Max. Fold Increase: CC(C)(C)NCc1cc(Nc2ccnc3cc(Cl)ccc23)ccc1Cl [Tetraoxane D535, 4′Chloro N-tertbutyl amodiaquin, reference compound]
1.10

Item CCS(=O)(=O)N1CCC2(CC1)OOC1(OO2)C2CC3CC(C2)CC1C3 [Tetraoxane 39b] has what recorded Max. Fold Increase?
1.03

====

- System: H9c2(2-1) Myocardium, heart
- Measurement Protocol: Cellular cytotoxicity screen, Resazurin reduction
- Assay type: cell-based, rat
- Experimental Setup: H9c(2-1)
Readout Label: Tox 50

- Compound: "CCS(=O)(=O)N1CCC2(CC1)OOC1(OO2)C2CC3CC(C2)CC1C3 [Tetraoxane 39b]"
  Target Entity: "H9c2(2-1) Myocardium, heart"
  Result: ">50 µM"
- Compound: "COc1cccc2c1C(=O)c1c(O)c3c(c(O)c1C2=O)C[C@@](O)(C(=O)CO)C[C@@H]3O[C@H]1C[C@H](N)[C@H](O)[C@H](C)O1 [Doxorubicin]"
  Target Entity: "H9c2(2-1) Myocardium, heart"
  Result: "3 µM"
- Compound: "O=S(=O)(C1CC1)N1CCC2(CC1)OOC1(OO2)C2CC3CC(C2)CC1C3 [Tetraoxane 39d]"
  Target Entity: "H9c2(2-1) Myocardium, heart"
  Result: ">50 µM"

Now consider a different compound.
Given the entry O=C(CC1CCC2(CC1)OOC1(OO2)C2CC3CC(C2)CC1C3)N1CCOCC1 (stereo not shown) [Tetraoxane 29h] , report its measured Tox 50.
>50 µM

====

Listed here are compounds together with their documented melting point.

Examples with their reported melting point follow.
- Compound: "O=C(CC1CCC2(CC1)OOC1(CCCCCCCCCCC1)OO2)NCCN1CCCCC1 [Tetraoxane 28e]"
  melting point: "96 to 98 °C"
- Compound: "O=C(CC1CCC2(CC1)OOC1(OO2)C2CC3CC(C2)CC1C3)NC1CC1 (centres unmarked) [Tetraoxane 29c]"
  melting point: "140 to 142 °C"
- Compound: "O=C(CC1CCC2(CC1)OOC1(CCCCCCCCCCC1)OO2)NCCN1CCCC1 [Tetraoxane 28d]"
  melting point: "108 to 110 °C"
- Compound: "O=C1CCC2(CC1)OOC1(CCCCC1)OO2"
  melting point: "78 to 80 °C"

# melting point lookup, item CCN(CC)CCNC(=O)CC1CCC2(CC1)OOC1(CCCCCCCCCCC1)OO2 [Tetraoxane 28g]
64 to 66 °C

====

- Test system: HepG2 Human hepatocyte carcinoma
- Measurement Protocol: Cellular cytotoxicity screen, Resazurin reduction
- Format: cell-based
- Experimental Setup: Hep2G
Here, each record is paired with measured Tox 50 data.

Sample answers from the record:
- Compound: "COc1cccc2c1C(=O)c1c(O)c3c(c(O)c1C2=O)C[C@@](O)(C(=O)CO)C[C@@H]3O[C@H]1C[C@H](N)[C@H](O)[C@H](C)O1"
  Tox 50: "0.3 µM"
- Compound: "O=S(=O)(C1CC1)N1CCC2(CC1)OOC1(OO2)C2CC3CC(C2)CC1C3 [Tetraoxane 39d]"
  Tox 50: ">50 µM"
- Compound: "O=C(CC1CCC2(CC1)OOC1(OO2)C2CC3CC(C2)CC1C3)N1CCOCC1 (stereo not shown) [Tetraoxane 29h]"
  Tox 50: ">50 µM"

Now for the compound whose Tox 50 we want.
// returns reported Tox 50 for input CCS(=O)(=O)N1CCC2(CC1)OOC1(OO2)C2CC3CC(C2)CC1C3 [Tetraoxane 39b]
>50 µM
